target: Class 1 histone deacetylase (Homo sapiens, UniProt Q13547+O15379+Q92769+Q9BY41); assay: Inhibition of Class 1 HDAC in VSV-G-pseudotyped HIV infected human 2C4 cell Jurkat model assessed as reactivation of HIV latency in presence of 0.1% NHS by fluorescent reporter gene assay
Entries annotated with measured EC50
Record the value in nM, omitting the unit from your answer.

{"columns": ["entry-smiles", "assayed-target", "EC50 / nM"],
 "data": [
  ["CCC(=O)CCCCC[C@H](NC(=O)[C@H]1CC12CCN(C)CC2)c1[nH]c(-c2ccc(F)cc2F)nc1C#N", "Class 1 histone deacetylase (Homo sapiens, UniProt Q13547+O15379+Q92769+Q9BY41)", 1233],
  ["CCC(=O)CCCCC[C@H](NC(=O)c1ccon1)c1[nH]c(-c2ccc(F)cc2)nc1C#N", "Class 1 histone deacetylase (Homo sapiens, UniProt Q13547+O15379+Q92769+Q9BY41)", 558],
  ["CCC(=O)CCCCC[C@H](NC(=O)[C@H]1CC12CCN(C)CC2)c1[nH]c(-c2ccc(-c3cccnc3)cc2)nc1C#N", "Class 1 histone deacetylase (Homo sapiens, UniProt Q13547+O15379+Q92769+Q9BY41)", 77]
]}

Attention now shifts to the item below.
I would be grateful if you could share the reported EC50 for CCC(=O)CCCCC[C@H](NC(=O)[C@H]1CC12CCN(C)CC2)c1[nH]c(-c2cccnc2OC)nc1C#N .
2112
